Molecular target: D(1A) dopamine receptor (Rattus norvegicus, UniProt P18901)
Sequence (P18901 whole entry): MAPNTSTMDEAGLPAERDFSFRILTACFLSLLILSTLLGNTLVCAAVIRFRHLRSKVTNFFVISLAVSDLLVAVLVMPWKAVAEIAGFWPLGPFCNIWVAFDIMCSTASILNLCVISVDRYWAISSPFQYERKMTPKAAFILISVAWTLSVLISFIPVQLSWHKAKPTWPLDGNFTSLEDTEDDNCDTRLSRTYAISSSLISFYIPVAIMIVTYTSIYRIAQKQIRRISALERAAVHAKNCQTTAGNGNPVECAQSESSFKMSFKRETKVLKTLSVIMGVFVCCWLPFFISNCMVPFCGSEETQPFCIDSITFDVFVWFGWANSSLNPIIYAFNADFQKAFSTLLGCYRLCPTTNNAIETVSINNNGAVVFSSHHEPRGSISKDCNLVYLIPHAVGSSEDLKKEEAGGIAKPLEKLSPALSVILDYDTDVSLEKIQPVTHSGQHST
Test: Displacement of [3H]SCH-23390 from rat dopamine D1 receptor
pKi: −log10 of the molar value.
attribute measured: pKi

Past entries and their recorded results:
| molecule | experimental system | pKi |
| --- | --- | --- |
| CN1CCc2cc(-c3ccc(O)cc3)cc3c2[C@H]1Cc1cccc(O)c1-3 | D(1A) dopamine receptor (Rattus norvegicus, UniProt P18901) | 6.77 |
| COc1cc2c3c(c1)Cc1ccccc1CC3N(C)CC2 (stereo unspecified) | D(1A) dopamine receptor (Rattus norvegicus, UniProt P18901) | 5.07 |

I. CN1CCc2cc(O)cc3c2C1Cc1ccccc1C3 (stereo unspecified)
II. CN1CCc2cc(O)cc3c2C1Cc1ccccc1O3 (stereo unspecified)
[in] Field: lower recorded pKi (choose I or II ) Let me know the label of the one you choose.
[out] I
